All values here come from the supplement of paper PMC12764529.

- assay notes: folding stability dG unfold (combined trypsin and chymotrypsin); higher = more stable
Quick rule for you: folding stability dG unfold at -0.1 kcal/mol or higher means criterion met, lower means criterion not met.

Observe how each entry below is paired with its result.
SAGGSAGGSAMLTKTIKLPNGKPASVTITTLSEGSSPGSSVDPKLVINADPNIPKEIVDKLLSAGGSAGGSA [r18_272_JUSTAS]: criterion not met
SAGGSAGGSAPLVLVAPGDAPVTVYPDPETGTYVAVFPDGSVLVAPVVGDVVPVVLLPPGLASAGGSAGGSA [r18_405_TrMRF]: criterion not met
SAGGSAGGWFWVIKAEYPKNGRERSIQIPNEATDEDDVKEEVKELAEDLGAPIKKVEIEWIDPESAGGSAGG [r6_718_TrROS]: criterion not met
SAGGSAGGSAGGDKDDKPPVRTVTVMHMFFDENGWLVKFDITFTANGQIEIDWGPVPLPSAGGSAGGSAGGS [r10_682_TrROS]: criterion met

Exercise: Identify whether the reported folding stability dG unfold of the following sequence is -0.1 kcal/mol or greater: SAMMYLIRVTITVKNKETGEEKEIEVEILIEKEEGELTEEEIEELARKLAEELGLEVEEIKIEIEPLPESAG [r14_278_TrROS_Hall]
Solution: criterion met

Exercise: Decide: folding stability dG unfold of SGPAEGFEAELVEEYTLPETERVFVYRVTHPDGTEYVLVVVRNPDGTWEPVFVYRPDDPDALREALELLGSA [r9_1069_TrMRF] >= -0.1 kcal/mol?
Solution: criterion met

---

- assay notes: folding stability dG unfold from trypsin proteolysis; higher = more stable
endpoint name: folding stability dG unfold (kcal/mol)
Hi! Could you send only the number? It should be in kcal/mol, unit omitted.

Take a look at these entries with their results.
SAGGSAPARIVLPGGRTRTLRLSEISPELLAAFPDVLVRLPGGEVRRLPADTLLSLEGDYTLVVPGSAGGSA [r15_733_TrMRF]: -0.262
SAGGSAGGSPVVAIRAKSREELLAALEALLPPGQKLTPEQRQQLVDTLLANLDVKPGDTILVRSAGGSAGGS [r12_983_TrROS_Hall]: 1.07
SAGGSAGGSAGGGMSTAVLKIDDKWVPVRIYPDSVVIEYPDGSTKTISLSEIPENLIELPSAGGSAGGSAGG [r7_748_JUSTAS]: 2.2

Exercise: Would you kindly share the measured folding stability dG unfold for SAGGMYKARIEVKNPEEVKKKIKELGLEFEIETRPDGSVDIYFPPEYVDKLIKAFPGEKIEIEPIPDESAGG [r13_261_TrMRF] ?
Solution: 2.94

Exercise: Fill in: folding stability dG unfold of SAGGSAGGIMIDSPEQMEEFAKDFFQNGYHEVPIHVMDPNGNWQTFPFTIEVPPPKPEPDPGKKSAGGSAGG [r6_258_TrROS] is ___
Solution: -0.648

Exercise: What does the record list as folding stability dG unfold for SAPLDPDQAKEQAENIADYFQDEMQDQFGMDPSDIDVDVKVEQEPNGHYRITVEITMGNMPIEMEIYVPSAG [r14_226_TrROS] ?
Solution: 1.45

Exercise: Requested field: folding stability dG unfold. Item: SAGGSAGGSSKNGKPKPTIKVEMPDKPGPHEIPIPESDPDEAKTLAEELAQKWPGVPVRIEPTSAGGSAGGS [r12_601_TrROS]
Solution: -0.293

---

- assay notes: folding stability dG unfold (combined trypsin and chymotrypsin); higher = more stable
endpoint name: folding stability dG unfold (kcal/mol)
Form entry: value (kcal/mol) — number only.

The examples below pair each entry with its known result.
SAGGSAGGSAGGSDVKIEVERGPNGYYTVTIELNGKPKIIPFPPGRPPEDAKDEIKDLLSAGGSAGGSAGGS [r4_7_TrROS]: 0.335
SAGGSMIVKVTVRVDGKEYERTVEVESLEEALELELPELPEGAEVRIEVVDPETGELIETVTLRVPSAGGSA [r2_390_TrROS_Hall]: 2.46

Exercise: Which value of folding stability dG unfold has been reported for SAGGMVLVIVSDLKPGELNEIIEKLKKEGLEVKLFLPNGEEIDADPNIEDLPEDVPVVLLVRHPDKSSAGGS [r16_31_TrMRF] in the records?
Solution: 2.35

Exercise: Value lookup for folding stability dG unfold; key = SAGGNAKEIASYLADWFQERFPPNMKVKVSVTVTPDGIVVRIRMPGGWQFEITIKDGKLQEIEWTPYSAGGS [r8_287_TrROS]
Solution: 2.79

Exercise: Returns the measured folding stability dG unfold for the input sequence. Input: SAGGSKKTIVIPVPPGMSVEQIAAELKAKLEELFPDLKVEVVEVKPDGYVKIKIDGKLILIKFPKPSAGGSA [r2_102_TrROS_Hall]
Solution: 2.77

Exercise: Quick one: folding stability dG unfold for SAGMKPPKIEITIEVVEKDGELYVRVKIKLENGEEIEIVMSLDEVKELLKKLFPEITEIEVEEVRLPPKSAG [r5_25_TrROS_Hall] ?
Solution: 3.74

---

- assay notes: folding stability dG unfold from trypsin proteolysis; higher = more stable
endpoint name: folding stability dG unfold (kcal/mol)
Report the value in kcal/mol with no unit label.

Use these answered entries as a reference point.
SSVITNKGSLTITKTTLPDGTVVITITDPNGGRTTTITIPADSDGEATVTPTGSGNAATSTIPVSSLKLSSA [r9_1071_JUSTAS]: 0.505
STTEVEVTPLPGNSTLVTTTTTTPEFDPANGTIRYTSETTTTTITYTPGTTEPTTTTTTTTTTTTIPATTSA [r9_140_JUSTAS]: 0.639
SAGGSAMVPEDEGLIVVERDVPFDKAEEFVEEVIEELGIPPEKVKKIELFEEKVEDGPALRALVYLSAGGSA [r15_934_TrMRF]: -0.294

With those in mind, consider the next sequence.
Exercise: # get_value(readout='folding stability dG unfold', item= SAGDSIEIMVMVKTPEEAKKLADEIAQILPGNGLNIEITIMPMEELMKMFMEMTKPDPDGEYRRVRMFSAGG [r19_187_TrROS] )
Solution: 1.07

---

- assay notes: folding stability dG unfold from trypsin proteolysis; higher = more stable
Recorded folding stability dG unfold by entry
Report as a plain number; the unit kcal/mol is understood.

Would you please look over these solved cases?
SAGGMTLEITFPPNVKKVRVEFDEETNEVKVEVEEVDGELVIRVEVPPGQELSEEELERLKKLLEELSAGGS [r16_359_TrROS_Hall]: 1.34
SAGGSAGGSKEFKVEEVGGRLYITFPDGTVVEVRFDKPVTFDLKTGKLYFPEGAEVEKRRLKESAGGSAGGS [r20_158_TrROS_Hall]: 0.0253
SPVEIVSEETDPNGGTKYKTYSNPQADVRIEVAYPSSGITITVHFPDSTSTKSFSSEADAEKEVVRLAASSA [r9_527_JUSTAS]: 0.339
SGFTFSTLIAPDESLSITVKEPNSSTTTSFDFTVDPATGAVSATATTTPPDGKTQTFSVTIPVSPGAAALSA [r9_770_JUSTAS]: 1.02
SAMLRIRVEYEDGRVEDIVIPLAGEDPPFGKEAVEEAAERIAKEVEEKYGLKNVKTEVEAFPVSPEELLSAG [r14_378_TrMRF]: 0.326
SAGGSAGGSAMITTPKGERFEVPLRLTPDGRLEVLVVTDRPDDPEVRELAERLARELAERLSAGGSAGGSAG [r3_163_TrMRF]: 0.506
SAGGSAGGMKKYKMTITFKTPDGTPVKEKTIYFNSEEEAKKAAEEIKKKELEPDTPVTVSKEPDSAGGSAGG [r6_286_JUSTAS]: 0.425
SAGGSAGGSAGGNEEDIEKAVKEAKEKGENAEVKVTLPNGKEETVYIEVNVKEPSEKLKSAGGSAGGSAGGS [r10_573_JUSTAS]: -1.05
SASPDETVILEKVLPPSASPEEVEKEREEIREKLESLGAKVEVTIEPDPETGTIPIKITITKEQYEKLKSAG [r14_602_JUSTAS]: -0.459
SAGGSSPLLLTSSPTPLTLPDGGTVTLTTTRVPGDNADVVTITTTPPGTGTTTVTTLPASTAAATLSAGGSA [r2_366_JUSTAS]: 1.47

Exercise: Quick one: folding stability dG unfold of SAGGSAGGSAGGMINIEGSSFEIVQPDGKPIGSESTGSAEELAKKLPSSYSVLPKGVPPSAGGSAGGSAGGS [r10_310_JUSTAS] ?
Solution: 1.67

Exercise: Using the record for SAGGSAMRPLELENPNGREITIWYNPGEGHFQVEIERYEPPPNGKKKPQRHTFMVNSPEDLLDFIKSAGGSA [r15_31_TrROS] , report its folding stability dG unfold.
Solution: 1.57

Exercise: Field request: folding stability dG unfold | item: SAGGSAGGSAGGSKEIKVEVEEKDGKLTVTVTFPDGSKVEIEGMSAEEVEKLVKELAKKSAGGSAGGSAGGS [r4_383_TrROS_Hall]
Solution: 1.4
